Experiment: Solubility of organic acceptor compound in tetrahydrofuran (solvent of coating solution)
Type: physicochemical
Measurement Setup: Table 3; in THF
Text: Specific examples of the organic acceptor compound are shown below.
Endpoint Name: Solubility/THF [% by weight] of organic acceptor (% by weight)
Answers are plain numbers, in % by weight.

1. O=C1C(Oc2ccccc2)=C(Oc2ccccc2)C(=O)c2ccccc21 = 3
2. O=C1c2ccc3c4c(ccc(c24)C(=O)N1C1CCCCC1)C(=O)N(C1CCCCC1)C3=O = 1
3. O=C1NC(=O)c2ccccc21 = 3

Request: Report Solubility/THF [% by weight] of organic acceptor for `CC(C)(C)C1=CC(=C2C=C(C(C)(C)C)C(=O)C(C(C)(C)C)=C2)C=C(C(C)(C)C)C1=O` please.
Result: 3

----------
Please respond with reported Reduction Potential for every item in the list.
Experiment: Reduction potential of organic acceptor compound by cyclic voltammetry
Type: physicochemical
Measurement Setup: to reference electrode (Ag+/Ag); cyclic voltammetry in dichloromethane
Method: The reduction potential of the organic acceptor compound was determined by a cyclic voltammetry. The measurement conditions are shown below. Work electrode: glassy carbon Counter electrode: platinum Reference electrode: silver/silver nitrate (0.1 mol/1AgNO3-acetonitrile solution) Electrolyte: tetra-n-butylammonium perchlorate (0.1 mol) Specimen: acceptor compound (0.001 mol) Solvent: dichloromethane (1 L)
One number for each entry, in V.

1) O=C1C(Oc2ccccc2)=C(Oc2ccccc2)C(=O)c2ccccc21 = −0.95

// each molecule listed below needs its Reduction Potential
1. Cc1ccc(C(=O)c2ccc(C)cc2)cc1 [AC-8, reference compound]
2. CC(C)(C)C1=CC(=C2C=C(C(C)(C)C)C(=O)C(C(C)(C)C)=C2)C=C(C(C)(C)C)C1=O
3. O=C(c1ccccc1)c1ccccc1 [AC-6, reference compound]
4. O=C1NC(=O)c2ccccc21

Result:
−1.31
−0.85
−1.32
−1.28

// each molecule listed below needs its Reduction Potential
1. O=C1OC(=O)c2ccccc21 [AC-5, reference compound]
2. O=C1c2ccc3c4c(ccc(c24)C(=O)N1C1CCCCC1)C(=O)N(C1CCCCC1)C3=O

Result:
−1.53
−0.85

----------
Please respond with reported Reduction potential [V] for every item in the list.
Experiment: Reduction potential of organic acceptor compound by cyclic voltammetry
Format: physicochemical
Measurement Setup: organic acceptor; Table 1
Answers are plain numbers, in V.

1. O=C1NC(=O)c2ccccc21 [AC-4] = −1.28
2. O=C1C(Oc2ccccc2)=C(Oc2ccccc2)C(=O)c2ccccc21 [AC-1] = −0.95
3. O=C1c2ccc3c4c(ccc(c24)C(=O)N1C1CCCCC1)C(=O)N(C1CCCCC1)C3=O [AC-3] = −0.85

Request: Report Reduction potential [V] for CC(C)(C)C1=CC(=C2C=C(C(C)(C)C)C(=O)C(C(C)(C)C)=C2)C=C(C(C)(C)C)C1=O [AC-2] please.
Result: −0.85

----------
Please respond with reported Redox potential for every item in the list.
Experiment: Reduction potential of organic acceptor compound by cyclic voltammetry
Format: physicochemical
Measurement Setup: organic acceptor; Table 6
Numbers only.

1. Cc1ccc(C(=O)c2ccc(C)cc2)cc1 [AC-8, reference compound] = −1.31
2. O=C1OC(=O)c2ccccc21 [AC-5, reference compound] = −1.53
3. O=C1C(Oc2ccccc2)=C(Oc2ccccc2)C(=O)c2ccccc21 = −0.95

Please look at the following compound next.
Request: Report Redox potential for O=C(c1ccccc1)c1ccccc1 [AC-6, reference compound] please.
Result: −1.32
